# Substrate: O=c1[nH]c(=O)c2[nH]c(=O)[nH]c2[nH]1
# Assay notes: purified protein
# Format: biochemical, Latimeria menadoensis
# Protocol conditions: 50 mM sodium borate pH 8.0, 30 °C, 15-120 µM uric acid
# kcat annotations
Field: numeric (s⁻¹). Do not append units.

Protein	Units text	kcat
L. menadoensis uricase S136C mutant (enzyme, UniProt M3XGK0 1-306, looked up, Uricase (urate oxidase) of Latimeria menadoensis, 306 amino acids, same construct as the wild type (pET20LM-UOX) with S136C by site-directed mutagenesis; His6 tag joined by two residues from the XhoI site, as in m1; source: E. coli BL21(DE3), purified (Ni-NTA IMAC, gel filtration); not shown: His6, C-terminal, kept) MSHYVSSTRFQKDTDVEFVRTGYGKNIVKVLHIKREGKTHYIKEVEVAVQLALKSRKDYLYGDNSDIIPTDTMKNTVHALAKLKGINTIEEFAMDICEHFLTSFNHVTRANTYVEEAPWKRMEKNEVKHVHAFIYCPEATRFCEVEHHQNEPPVVHSGIKDMKVLKTTQSGFEGFVKDRFTTLPEVTDRCFSTVIYSKWLYNRSKNIDFDAAWKTVYDVIIEKFAGPYECGEYSPSVQKTLYETQVLCLNRVPEIEEVEIVMPNKHYFTIDMSKIGIVNKDEVLLPLDNPSGNITGTVRRKAHSKL	s⁻¹	22.5

# ---- query protein ----
Requested read-out: kcat. Entry: L. menadoensis uricase D288C mutant (enzyme, UniProt M3XGK0 1-306, looked up, Uricase (urate oxidase) of Latimeria menadoensis, 306 amino acids, same construct as the wild type (pET20LM-UOX) with D288C by site-directed mutagenesis; His6 tag joined by two residues from the XhoI site, as in m1; source: E. coli BL21(DE3), purified (Ni-NTA IMAC, gel filtration); not shown: His6, C-terminal, kept) MSHYVSSTRFQKDTDVEFVRTGYGKNIVKVLHIKREGKTHYIKEVEVAVQLALKSRKDYLYGDNSDIIPTDTMKNTVHALAKLKGINTIEEFAMDICEHFLTSFNHVTRANTYVEEAPWKRMEKNEVKHVHAFIYSPEATRFCEVEHHQNEPPVVHSGIKDMKVLKTTQSGFEGFVKDRFTTLPEVTDRCFSTVIYSKWLYNRSKNIDFDAAWKTVYDVIIEKFAGPYECGEYSPSVQKTLYETQVLCLNRVPEIEEVEIVMPNKHYFTIDMSKIGIVNKDEVLLPLCNPSGNITGTVRRKAHSKL
65.1
